target: recombinant human plasminogen activator inhibitor-1 (PAI-1) (Homo sapiens, UniProt P05121); construct: purchased Molecular Innovations, Royal Oak, Mich; test: Primary Screen for the PAI-1 Inhibition (residual tPA activity, chromogenic substrate Spectrozyme-tPA); format: biochemical; conditions: 100 μM test compound; 140 nM PAI-1, 70 nM tPA, pH 6.6
Sequence (P05121 24-402): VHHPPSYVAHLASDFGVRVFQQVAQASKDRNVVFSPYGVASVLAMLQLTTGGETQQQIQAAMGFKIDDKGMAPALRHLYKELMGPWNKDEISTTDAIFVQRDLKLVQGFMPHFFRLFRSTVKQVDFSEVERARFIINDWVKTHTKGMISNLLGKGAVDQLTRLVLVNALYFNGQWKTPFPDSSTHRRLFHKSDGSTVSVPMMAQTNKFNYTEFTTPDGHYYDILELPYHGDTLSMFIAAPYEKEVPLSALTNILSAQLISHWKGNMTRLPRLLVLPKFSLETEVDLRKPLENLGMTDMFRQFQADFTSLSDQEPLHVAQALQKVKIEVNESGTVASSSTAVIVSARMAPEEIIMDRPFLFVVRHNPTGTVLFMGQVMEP
Record form. Attribute: inhibition at 100 µM. Fill in for each entry.
Answers are plain numbers, in %.

Some molecules with recorded inhibition at 100 µM:
Molecule	Recorded Endpoint	Observed Measurement
O=C(O)COc1ccc(-c2ccc(NC(=O)C3(c4cccc(F)c4)CCCC3)cc2)cc1 [Compound 23]	inhibition at 100 µM	77
CCCCc1oc2ccccc2c1C(=O)N(C)Cc1ccc(-c2ccc(OC(Cc3ccccc3)C(=O)O)c(Br)c2)cc1 (stereo not shown) [Compound 8]	inhibition at 100 µM	96
CCCCOc1ccc2cc(C(=O)Nc3ccc(-c4ccc(OC(Cc5ccccc5)C(=O)O)cc4)cc3)ccc2c1 (stereo not shown) [Compound 56]	inhibition at 100 µM	53
O=C(O)C(Cc1ccccc1)Oc1cccc(-c2ccc(NC(=O)C3(c4ccc(Cl)cc4)CCCCC3)cc2)c1 (stereo not shown) [Compound 51]	inhibition at 100 µM	60
CCCc1c(C(=O)Nc2ccc(-c3cccc(OC(Cc4ccccc4)C(=O)O)c3)cc2)cnn1-c1ccc(Cl)cc1 (stereo not shown) [Compound 27]	inhibition at 100 µM	63
O=C(O)C(Cc1ccccc1)Oc1ccc(-c2ccc(NC(=O)C3(c4ccc(Cl)cc4)CCCC3)cc2)cc1 (stereo not shown) [Compound 52]	inhibition at 100 µM	53

// next item, inhibition at 100 µM requested
Per the record, O=C(O)C(Cc1ccccc1)Oc1ccc(-c2ccc(NC(=O)C3(c4ccccc4)CCCC3)cc2)cc1 (stereo not shown) [Compound 31] has inhibition at 100 µM of 51

* * *

target: recombinant human plasminogen activator inhibitor-1 (PAI-1) (Homo sapiens, UniProt P05121); construct: purchased Molecular Innovations, Royal Oak, Mich; assay: Primary Screen for the PAI-1 Inhibition (residual tPA activity, chromogenic substrate Spectrozyme-tPA); type: biochemical; conditions: 100 μM test compound; 140 nM PAI-1, 70 nM tPA, pH 6.6
For each record, write down the corresponding inhibition at 100 µM.
Give bare numbers, in %.

Below: 4 compounds and their reported inhibition at 100 µM.
Compound	Observed Measurement
Cc1cc(C)c2c(c1C(=O)Nc1ccc(-c3cccc(OC(Cc4ccccc4)C(=O)O)c3)cc1)CC(C)(C)C2=O (stereo not shown) [Compound 54]	85
CCCc1c(C(=O)NCc2ccc(-c3ccc(OCC(=O)O)c(Br)c3)cc2)cnn1-c1ccccc1 [Compound 3]	88
CCCCc1oc2ccccc2c1C(=O)N(C)Cc1ccc(-c2ccc(OCC(=O)O)c(Br)c2)cc1 [Compound 7]	100
CCCc1ccc(-c2ccc(C(=O)Nc3ccc(-c4ccc(OC(Cc5ccccc5)C(=O)O)cc4)cc3)cc2)cc1 (stereo not shown) [Compound 20]	66

Answer for every listed entry: what is its inhibition at 100 µM? The entries follow.
1. O=C(Nc1ccc(-c2ccc(OC(Cc3ccccc3)C(=O)O)cc2)cc1)c1ccc2ccccc2c1 (stereo not shown) [Compound 55]
2. CCCCc1oc2ccccc2c1C(=O)Nc1ccc(-c2ccc(OC(Cc3ccccc3)C(=O)O)cc2)cc1 (stereo not shown) [Compound 49]
3. CN(Cc1ccc(-c2ccc(OCc3nnn[nH]3)c(Br)c2)cc1)C(=O)c1cn(Cc2ccccc2)c2ccccc12 [Compound 10]

53
90
76
